# target entity: T1, recombinant human ErbB2 extracellular domain (ErbB2-ECD) (human, UniProt P04626 23-652)
# T1 construct: extracellular domain; Coated on plates or used biotin-labeled in solution (capture ELISA); also called Human ErbB2-ECD; rhErbB2
# assay: capture ELISA, coated antibody, biotin-human ErbB2-ECD titrated
measured parameter: pEC50
pEC50 field: float, defined as -log10 of concentration (mol/L).

// lookup pEC50 for 4H2 mouse anti-ErbB2 monoclonal antibody (antibody, mouse IgG1, V domains shown, also called 4H2H2H9; IgG 4H2) VH: QVQLQQSGAELARPGASVKMSCKASGFTFTSYTIHWVKQRPGQGLDWIGYINPSSGYTTYNQRFKDKATLTADKSSSTAYMQLSSLTSADSAVYYCARASAYSLDYWGQGTTLTVSS VL: DIQMTQSPSSLSASLGGKVTITCKASQDIDRYIAWYQHKPGKGPRLLIHYTSTLQPGIPSRFSGSGSGRNYSFSISNLEPEDIATYYCLKYDNLLWTFGGGTKLEIK 9.93
